biological target: FGFR1 (Homo sapiens (Human)); assay: FGFR Enzymatic Assay (FRET peptide phosphorylation), FGFR1; conditions: read-out: FGFR1 IC50; pre-incubated for 5 to 10 minutes
Sequence (P11362 22-822): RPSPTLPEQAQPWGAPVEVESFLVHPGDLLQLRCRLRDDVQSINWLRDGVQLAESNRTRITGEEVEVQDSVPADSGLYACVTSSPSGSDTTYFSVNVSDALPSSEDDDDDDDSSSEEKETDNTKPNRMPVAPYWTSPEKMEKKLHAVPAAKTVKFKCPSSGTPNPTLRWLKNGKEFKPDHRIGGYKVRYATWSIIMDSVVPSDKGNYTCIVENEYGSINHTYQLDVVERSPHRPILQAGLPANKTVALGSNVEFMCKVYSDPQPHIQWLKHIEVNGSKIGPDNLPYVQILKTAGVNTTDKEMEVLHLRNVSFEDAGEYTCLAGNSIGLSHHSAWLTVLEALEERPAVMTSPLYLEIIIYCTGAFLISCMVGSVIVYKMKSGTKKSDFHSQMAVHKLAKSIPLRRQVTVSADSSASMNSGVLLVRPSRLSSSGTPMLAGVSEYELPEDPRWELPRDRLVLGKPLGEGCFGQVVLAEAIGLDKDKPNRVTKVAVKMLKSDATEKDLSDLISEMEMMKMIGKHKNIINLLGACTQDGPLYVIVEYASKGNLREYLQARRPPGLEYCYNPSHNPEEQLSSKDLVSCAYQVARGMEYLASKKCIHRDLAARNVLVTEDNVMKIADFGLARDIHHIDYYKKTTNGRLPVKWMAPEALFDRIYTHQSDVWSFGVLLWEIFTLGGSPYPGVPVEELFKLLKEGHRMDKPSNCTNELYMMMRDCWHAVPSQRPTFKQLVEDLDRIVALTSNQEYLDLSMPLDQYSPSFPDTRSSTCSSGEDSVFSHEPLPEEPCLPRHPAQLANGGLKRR
Items are presented alongside their recorded IC50.

Would you please look over these solved cases?
molecule="COc1cc(OC)c(F)c(N2Cc3cnc(-c4cc(N)cnc4C)cc3C3(CC3)C2=O)c1F [Example 7]" tested_system="FGFR1 (Homo sapiens (Human))" readout=IC50 observed_result="> 0.2 µM"
molecule="CCN1C(=O)N(c2c(F)c(OC)cc(OC)c2F)Cc2cnc(-c3cnn(C)c3)cc21 [Example 169]" tested_system="FGFR1 (Homo sapiens (Human))" readout=IC50 observed_result="< 0.01 µM"
molecule="COc1cc(OC)c(F)c(N2Cc3cnc(-c4cc(N)ccc4C)cc3C3(CC3)C2=O)c1F [Example 1]" tested_system="FGFR1 (Homo sapiens (Human))" readout=IC50 observed_result="> 0.2 µM"
molecule="COc1cc(OC)c(F)c(N2Cc3cnc(-c4cnn(C)c4)cc3C3(CC3)C2=O)c1F [Example 186]" tested_system="FGFR1 (Homo sapiens (Human))" readout=IC50 observed_result="< 0.01 µM"
molecule="COc1cc(OC)c(F)c(N2Cc3cnc(-c4cc(N)ccc4C#N)cc3C3(CC3)C2=O)c1F [Example 3]" tested_system="FGFR1 (Homo sapiens (Human))" readout=IC50 observed_result="> 0.2 µM"

Name the recorded IC50 for COc1cc(OC)c(F)c(N2Cc3cnc(-c4cncc(CN5CCOCC5)c4)cc3C3(CC3)C2=O)c1F [Example 16] . > 0.2 µM

Give its IC50 value. Item: CCn1cc(CN2C(=O)N(c3c(F)c(OC)cc(OC)c3F)Cc3cnc(-c4cnn(C)c4)cc32)cn1 [Example 145] < 0.01 µM

Query (molecule): COc1cc(OC)c(F)c(N2Cc3cnc(-c4cncc(S(=O)(=O)N5CCOCC5)c4)cc3C3(CC3)C2=O)c1F [Example 14] ; field requested: IC50 > 0.2 µM
